- TEST METHOD NOTES: in vivo
- EXPERIMENTAL SETUP: male, C57BL/6J, mouse, po, 10 mg/kg
ATTRIBUTE MEASURED: AUC (ng·h/mL)
Give bare numbers, in ng·h/mL.

Could you share which AUC value was measured for COc1cc(CC/C=C/C(=O)CCc2ccc(O)c(OC)c2)ccc1O [gingerenone A, Gingerenone A] ?
1.25
